ASSAYED TARGET: β2-adrenergic receptor (B2-AR) (Homo sapiens, UniProt P07550)
Construct: expressed in transfected cells
Sequence (P07550 whole entry): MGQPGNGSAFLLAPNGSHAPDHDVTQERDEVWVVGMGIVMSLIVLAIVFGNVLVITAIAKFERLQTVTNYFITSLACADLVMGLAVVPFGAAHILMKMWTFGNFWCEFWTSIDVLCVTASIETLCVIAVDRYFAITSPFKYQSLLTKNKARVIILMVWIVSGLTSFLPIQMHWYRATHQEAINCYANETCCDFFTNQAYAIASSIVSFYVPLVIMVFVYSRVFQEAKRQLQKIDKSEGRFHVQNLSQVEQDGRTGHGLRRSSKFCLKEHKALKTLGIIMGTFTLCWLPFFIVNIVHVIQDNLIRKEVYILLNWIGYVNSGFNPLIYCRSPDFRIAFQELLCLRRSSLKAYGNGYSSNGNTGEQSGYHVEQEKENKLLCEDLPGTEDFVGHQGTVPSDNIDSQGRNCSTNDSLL
ASSAY INFO: cAMP Gs dynamic HTRF assay, cells expressing β2-adrenergic receptor
Format: cell-based
TEST PARAMETERS: CHO-K1 (HitHunter) cells; read-out: Average pEC50 [Receptor subtype: B2-AR; Cell type: CHO-K1 (HitHunter)] (converted)
Protocol: cAMP homogeneous time-resolved fluorescence (HTRF): experimental methods. Compound efficacy is determined using the cAMP Gs dynamic HTRF assay (Cisbio, catalog #62AM4PEC) largely following the manufacturer's instructions, also detailed below. Standard serial dilution curves are 10-point, 5-fold dilutions starting from a highest concentration of 10 μM. […] Assay plates are centrifuged at 500×g for 10 seconds. Compounds and IBMX are prepared at 2× final dose to compensate for addition of cells. […]
Documented EC50 across a set of molecules

A selection of reference data follows.
                                   molecule          result
0  CC(C)(C)NC[C@H](O)c1ccc2cccc(C#N)c2n1 [Compound 04-135]       < 0.01 µM
1  Cc1ccc2cccc([C@H](O)CNC(C)(C)C)c2n1 [Compound 04-87]     0.1 to 1 µM
2  CC(C)(C)NC[C@@H](O)c1cccc(N)n1 [Compound 02-6]  0.01 to 0.1 µM

Query :: I am curious: what EC50 value has been reported for CC(C)(C)NC[C@H](O)c1ccc(F)c2[nH]c(=O)ccc12 [Compound 04-4] ?
Result :: < 0.01 µM

Query :: Similarly, COc1ccc(CC(C)(C)NC[C@H](O)c2cccc3[nH]c4ccccc4c23)cc1 [Compound 04-55] ?
Result :: < 0.01 µM

Query :: Similarly, CC(C)(C)NC[C@H](O)c1cccc2c1C1(CC1)C(=O)N2 [Compound 04-103] ?
Result :: 0.1 to 1 µM

Query :: Similarly, CC(C)(C)NC[C@H](O)c1cccc2cccnc12 [Compound 04-94] ?
Result :: < 0.01 µM

Query :: Similarly, CC(C)(C)NC[C@@H](O)c1ccc2cccc(C#N)c2n1 [Compound 04-134] ?
Result :: 0.1 to 1 µM

Query :: Similarly, Cc1cc2c([C@@H](O)CNC(C)(C)C)cccc2[nH]c1=O [Compound 04-18] ?
Result :: 0.01 to 0.1 µM

###

ASSAYED TARGET: β2-adrenergic receptor (B2-AR) (Homo sapiens, UniProt P07550)
Construct: expressed in transfected cells
ASSAY INFO: cAMP Gs dynamic HTRF assay, cells expressing β2-adrenergic receptor
Type: cell-based
TEST PARAMETERS: CHO-K1 (HitHunter) cells; read-out: Average pEC50 [Receptor subtype: B2-AR; Cell type: CHO-K1 (HitHunter)] (converted)
Documented EC50 across a set of compounds

A selection of reference data follows.
>>> print(df.to_string())
                         compound_structure  property_measured          result
0  CC(C)(C)NC[C@H](O)c1ccc(F)c2[nH]c3ccccc3c12               EC50         < 10 nM
1     CC(C)(C)NC[C@@H](O)c1cccc2oc(=O)ccc12               EC50         < 10 nM
2             CC(C)(C)NC[C@H](O)c1cccc(O)n1               EC50       > 1000 nM
3    Cc1ccc([C@@H](O)CNC(C)(C)C)c2cn[nH]c12               EC50         < 10 nM
4   CC(C)(C)NC[C@H](O)c1ccnc2[nH]c(=O)ccc12               EC50         < 10 nM
5      CC(C)(C)NC[C@@H](O)c1ccc2cccc(F)c2n1               EC50  100 to 1000 nM

Query :: I am curious: what EC50 value has been reported for `Cc1nc(N)c(C#N)cc1[C@H](O)CNC(C)(C)C` ?
Result :: > 1000 nM

Query :: Similarly, `CC(C)(C)NC[C@H](O)c1cccc2oc(=O)ccc12` ?
Result :: 100 to 1000 nM

Query :: Similarly, `CC(C)(C)NC[C@H](O)c1ccc2c(c1)C1(CC1)CN2` ?
Result :: 100 to 1000 nM
